Tested on: HOP-62 NSCLC
procedure_summary: NCI tumour cell line growth inhibition, 48 h

{"compound": "Cc1cc(N)c2cc(NC(=O)Nc3ccc4nc(C)cc(N)c4c3)ccc2n1", "TGI": "> 100 µM"}
{"compound": "COC1/C=C/OC2(C)Oc3c(C)c(O)c4c(O)c(c(C=NOC(c5ccccc5)c5ccccc5)c(O)c4c3C2=O)NC(=O)/C(C)=C/C=C/C(C)C(O)C(C)C(O)C(C)C(OC(C)=O)C1C (centres undefined)", "TGI": "1.85 µM"}
{"compound": "C1C[S][Ge]2([S]CCS1)[S]CCSCC[S]2", "TGI": "> 100 µM"}
{"compound": "COc1c(OC)c(OC)c(-c2cc(=O)c3c(OC)c(OC)c(OC)c(OC)c3o2)c(OC)c1OC", "TGI": "> 100 µM"}
